experiment: Acute toxicity, LD50 in mice (Litchfield and Wilcoxon); conditions: mouse, in vivo, po
recorded endpoint: LD50 (mg/kg)
Your answer is read as mg/kg, so omit the unit and give the number.

May I ask what LD50 has been recorded for CCOC(=O)c1c(C)cc2c(CO)nn(-c3ccccc3)c(=O)c2c1C ?
540

May I ask what LD50 has been recorded for CCOC(=O)c1c(C)cc2c(CO)nn(-c3ccccc3Cl)c(=O)c2c1C ?
564

May I ask what LD50 has been recorded for CCOC(=O)c1c(C)cc2cnn(-c3ccccc3Cl)c(=O)c2c1C ?
386

May I ask what LD50 has been recorded for CCOC(=O)c1c(C)cc2cnn(-c3ccccc3F)c(=O)c2c1C ?
450

May I ask what LD50 has been recorded for CCOC(=O)c1c(C)cc2cnn(-c3ccccc3)c(=O)c2c1C ?
480
